Where do these numbers come from? They come from patent US20230321042A1.

Molecular target: CDK6/Cyclin D3 (Homo sapiens (Human))
Sequence (Q00534 whole entry): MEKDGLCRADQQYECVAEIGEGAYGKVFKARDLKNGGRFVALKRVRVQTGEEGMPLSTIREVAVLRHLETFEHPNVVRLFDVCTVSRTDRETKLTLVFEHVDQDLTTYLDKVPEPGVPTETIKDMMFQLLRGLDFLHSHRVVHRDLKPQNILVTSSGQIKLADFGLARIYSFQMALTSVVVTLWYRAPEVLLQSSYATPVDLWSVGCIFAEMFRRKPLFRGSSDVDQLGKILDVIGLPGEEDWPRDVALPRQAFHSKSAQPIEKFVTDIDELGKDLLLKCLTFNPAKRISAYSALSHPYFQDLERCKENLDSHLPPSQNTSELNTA
Sequence (P30281 whole entry partner): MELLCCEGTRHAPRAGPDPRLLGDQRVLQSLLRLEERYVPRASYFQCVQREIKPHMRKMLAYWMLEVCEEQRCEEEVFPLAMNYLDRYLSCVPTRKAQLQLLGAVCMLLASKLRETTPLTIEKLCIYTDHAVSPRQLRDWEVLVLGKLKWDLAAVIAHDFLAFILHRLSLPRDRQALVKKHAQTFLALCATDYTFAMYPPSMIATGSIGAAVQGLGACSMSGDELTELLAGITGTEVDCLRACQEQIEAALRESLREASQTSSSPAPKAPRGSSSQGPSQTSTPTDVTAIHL
Assay: CDK6/Cyclin D3 mobility shift assay
Settings: 3.5 mM ATP
measured attribute: Ki (nM)
Kindly answer with a numeric value in nM, unit omitted.

Observe how each entry below is paired with its result.
CCCNC(=O)O[C@@H]1CC[C@H](c2cc(NC(=O)Cc3ccnc(OC)c3)n[nH]2)C1 | 215
COCc1cc(C(=O)Nc2cc([C@H]3CC[C@@H](OC(=O)NC(C)C)C3)[nH]n2)n(C)n1 | 465

Req: Write down Ki measured for item `CC[C@H](C)NC(=O)O[C@@H]1CC[C@H](c2cc(NC(=O)Cc3ccccc3S(C)(=O)=O)n[nH]2)C1`
Resp: 254

* * *

Test system: T47D
Experiment: 7-day anti-proliferation assay (CyQuant Direct) in T47D
Type: cell-based
Details: Homo sapiens, 168 h
Reported EC50 values follow for various compounds
Kindly answer with a numeric value in nM, unit omitted.

Observe how each entry below is paired with its result.
COCc1cc(C(=O)Nc2cc([C@H]3CC[C@@H](OC(=O)NC(C)C)C3)[nH]n2)n(C)n1 | 403
CC[C@H](C)NC(=O)O[C@@H]1CC[C@H](c2cc(NC(=O)Cc3ccccc3S(C)(=O)=O)n[nH]2)C1 | 220
CC(=O)c1c(C)c2cnc(Nc3ccc(N4CCNCC4)cn3)nc2n(C2CCCC2)c1=O [Palbociclib, reference compound] | 87

Okay, now this compound:
Req: Write down EC50 measured for item `CCCNC(=O)O[C@@H]1CC[C@H](c2cc(NC(=O)Cc3ccnc(OC)c3)n[nH]2)C1`
Resp: 443

* * *

Assay: In vivo study in MCF-7 breast cancer xenograft
Conditions: female, mouse, po, BID, MCF7 xenograft model, NSG mice, read-out: maximum tolerated dose level
measured attribute: MTD at 21 days (mg/kg)
Kindly answer with a numeric value in mg/kg, unit omitted.

Req: Write down MTD at 21 days measured for item COCc1cc(C(=O)Nc2cc([C@H]3CC[C@@H](OC(=O)NC(C)C)C3)[nH]n2)n(C)n1 [COMPOUND A]
Resp: 150
